Read-out: Lipoprotein lipase (LPL), LPL (gene 4023)
Assay: LTEA_HepaRG_LPL: Life Technologies and Expression Analysis (LTEA) Assay for Lipoprotein lipase (LPL) using HepaRG (AID 2283515)
Settings: mRNA level, 48 h; actives raise or lower the signal
Activity calls are given as the source filed them. How the source made its calls: active means hit-call score of the fitted dose curve at least 0.9, where 1 is the maximum; inactive means score below 0.9.
Your reply should match one of these outcome classes. class 1 = active, class 0 = inactive

Some solved cases for reference:
                          compound  category
0  Nc1ccc(S(=O)(=O)c2ccc(N)cc2)cc1   class 0
1                  CCCCN(CCCC)CCCC   class 0
2                       CN1CCCC1=O   class 0
3     CCOC(=O)C(C)(C)Oc1ccc(Cl)cc1   class 0

Status in this test for CC(=O)OCCOCCOCCOC(C)=O ?
class 0

Hi, sorry to bother you, what did the test record for CCCCC(CC)COC(=O)CC(C(=O)OCC(CC)CCCC)S(=O)(=O)O (centres undefined) ?
class 1

I'd appreciate the recorded outcome for O=C(N[C@@H](Cc1ccccc1)[C@@H](O)C(=O)N1C[C@@H](O)[C@@H](O)C1)c1cc2cc(Cl)ccc2[nH]1 from this test.
class 1

Please let me know the test result on file for CC(=O)C(C)=CC1C(C)=CCCC1(C)C (centres undefined) .
class 0

What was the test verdict on Cc1cccc([N+](=O)[O-])c1C ?
class 0

Fill in: this test's call for CC(C)(C)c1cc(O)c(C(C)(C)C)cc1O is ___
class 0

###

Test: ATG_RORE_CIS: Attagene CIS-FACTORIAL HepG2 Assay for human RAR-related Orphan Receptor Element (RORE) (AID 2282959)
Conditions: HepG2 Attagene cis-factorial RORE reporter, mRNA; actives raise or lower the signal
The source made the active and inactive calls. The calls were made as follows: active = hit-call score of the fitted dose curve at least 0.9, where 1 is the maximum; inactive = score below 0.9.
Permitted responses: TRUE = active, FALSE = inactive

Recorded results for 5 compounds are shown here.
                                smiles_code  category
0                          O=C(O)CCCCC(=O)O     FALSE
1  COc1cc(/C=C/C(=O)CC(=O)/C=C/c2ccc(O)c(OC)c2)ccc1O     FALSE
2  COc1cc(S(=O)(=O)O)c(C)cc1N=Nc1c(O)ccc2cc(S(=O)(=O)O)ccc12     FALSE
3                 CCCc1cc(=O)[nH]c(=S)[nH]1     FALSE
4                Oc1ccc2ccccc2c1N=Nc1ccccc1      TRUE

Next, consider the following compound.
// param item: CCOc1ccc2c(c1)C(C)=CC(C)(C)N2 ; yields the recorded call
TRUE

###

Read-out: ABC Transporter (ABCB11), ABCB11 (gene 8647)
Assay: LTEA_HepaRG_ABCB11: Life Technologies and Expression Analysis (LTEA) Assay for ABC Transporter (ABCB11) using HepaRG (AID 2283463)
Conditions: mRNA level, 48 h; actives raise or lower the signal
Active and inactive are the calls of the source. The calls were made as follows: active = hit-call score of the fitted dose curve at least 0.9, where 1 is the maximum; inactive = score below 0.9.
recorded-endpoint: AC50

                                smiles_code    recorded_result
0  CNC(=O)[C@H]1O[C@@H](n2cnc3c(NCc4cc(Cl)ccc4OCc4cc(C)no4)ncnc32)[C@H](O)[C@@H]1N           inactive
1                                CCCCCCCC=O           inactive
2                          COc1cc(C=O)ccc1O           inactive
3           Nc1ccc(S(=O)(=O)c2ccc(N)cc2)cc1           inactive
4  C[C@]12C=CC(=O)C=C1CC[C@@H]1[C@@H]2C(=O)C[C@@]2(C)[C@H]1CC[C@]2(O)C(=O)CO           inactive
5     CC(C)c1ccc(C(=O)N=C(N)N)cc1S(C)(=O)=O  0.392 µM (active)
6  COc1ccc(S(=O)(=O)N2C(=O)[C@@](c3ccccc3OC)(N3C[C@H](O)C[C@H]3C(=O)N(C)C)c3cc(Cl)ccc32)c(OC)c1   14.9 µM (active)
7                               CCCCCC(=O)O           inactive
8                             Cc1ccc(Cl)cc1           inactive
9                               Cc1ccccc1Cl           inactive

For the next question, use this molecule.
Dear colleague, I am looking for the recorded AC50 of the following molecule: Cc1nc(C)nc(N2C[C@@H](C)N(c3ccnc([C@@H](C)O)n3)[C@@H](C)C2)n1
inactive

Hey, just so you know, these numbers are from PubChem BioAssay (EPA / NIEHS).
